Assay: Permeability from basolateral to apical side in human Caco2 cells
Type: ADME, cell-based
Details: Caco-2, read-out: permeability
measured.attribute: Papp B→A (×10⁻⁶ cm/s)

>>> recorded_number("C=C[C@@H]1C[C@]1(NC(=O)[C@@H]1C[C@@H](Oc2cc(-c3csc(NC(C)C)n3)nc3cc(OC)ccc23)CN1C(=O)[C@@H](NC(=O)OC1CCCC1)C(C)(C)C)P(=O)(O)Cc1cccc(C)c1")
3.5
>>> recorded_number("C=C[C@@H]1C[C@]1(NC(=O)[C@@H]1C[C@@H](Oc2cc(-c3csc(NC(C)C)n3)nc3cc(OC)ccc23)CN1C(=O)[C@@H](NC(=O)OC1CCCC1)C(C)(C)C)P(=O)(O)Cc1ccc(OC)cc1")
5.83
>>> recorded_number("C=C[C@@H]1C[C@]1(NC(=O)[C@@H]1C[C@@H](Oc2cc(-c3csc(NC(C)C)n3)nc3cc(OC)ccc23)CN1C(=O)[C@@H](NC(=O)OC1CCCC1)C(C)(C)C)P(=O)(O)Cc1ccc(C)cc1")
12
>>> recorded_number("C=C[C@@H]1C[C@]1(NC(=O)[C@@H]1C[C@@H](Oc2cc(-c3csc(NC(C)C)n3)nc3cc(OC)ccc23)CN1C(=O)[C@@H](NC(=O)OC1CCCC1)C(C)(C)C)P(=O)(O)Cc1c(C)cccc1C")
2.93
>>> recorded_number("C=C[C@@H]1C[C@]1(NC(=O)[C@@H]1C[C@@H](Oc2cc(-c3csc(NC(C)C)n3)nc3cc(OC)ccc23)CN1C(=O)[C@@H](NC(=O)OC1CCCC1)C(C)(C)C)P(=O)(O)Cc1ccccc1C")
3.9
>>> recorded_number("C=C[C@@H]1C[C@]1(NC(=O)[C@@H]1C[C@@H](Oc2cc(-c3csc(NC(C)C)n3)nc3cc(OC)ccc23)CN1C(=O)[C@@H](NC(=O)OC1CCCC1)C(C)(C)C)P(=O)(O)Cc1cccc(F)c1")
1.8
>>> recorded_number("C=C[C@@H]1C[C@]1(NC(=O)[C@@H]1C[C@@H](Oc2cc(-c3csc(NC(C)C)n3)nc3cc(OC)ccc23)CN1C(=O)[C@@H](NC(=O)OC1CCCC1)C(C)(C)C)P(=O)(O)Cc1ccccc1F")
2.74
>>> recorded_number("C=C[C@@H]1C[C@]1(NC(=O)[C@@H]1C[C@@H](Oc2cc(-c3csc(NC(C)C)n3)nc3cc(OC)ccc23)CN1C(=O)[C@@H](NC(=O)OC1CCCC1)C(C)(C)C)P(=O)(O)Cc1ccc(F)cc1")
4.38
>>> recorded_number("C=C[C@@H]1C[C@]1(NC(=O)[C@@H]1C[C@@H](Oc2cc(-c3csc(NC(C)C)n3)nc3cc(OC)ccc23)CN1C(=O)[C@@H](NC(=O)OC1CCCC1)C(C)(C)C)P(=O)(O)Cc1ccccc1")
6.1
